Measured Target: COX-1 (Ovis aries)
Sequence (P05979 25-600): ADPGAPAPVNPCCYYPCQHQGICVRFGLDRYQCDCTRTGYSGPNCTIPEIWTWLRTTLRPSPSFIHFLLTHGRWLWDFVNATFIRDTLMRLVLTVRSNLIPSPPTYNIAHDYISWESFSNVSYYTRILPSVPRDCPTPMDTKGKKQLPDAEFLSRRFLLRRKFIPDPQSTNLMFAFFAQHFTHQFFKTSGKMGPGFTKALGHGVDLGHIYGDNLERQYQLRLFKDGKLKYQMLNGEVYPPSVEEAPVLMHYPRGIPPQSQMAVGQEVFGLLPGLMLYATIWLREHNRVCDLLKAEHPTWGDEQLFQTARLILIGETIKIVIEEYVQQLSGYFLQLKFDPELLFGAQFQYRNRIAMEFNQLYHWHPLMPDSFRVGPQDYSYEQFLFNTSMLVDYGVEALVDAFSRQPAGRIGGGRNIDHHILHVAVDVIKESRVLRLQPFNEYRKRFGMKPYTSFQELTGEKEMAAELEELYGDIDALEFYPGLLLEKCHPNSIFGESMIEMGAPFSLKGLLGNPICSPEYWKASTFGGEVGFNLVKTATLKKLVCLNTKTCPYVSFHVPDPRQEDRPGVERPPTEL
Test Summary: COX-1 inhibition, chromogenic TMPD oxidation assay
Format: biochemical, Ram
Reported Property: IC50 (µM)

In [3]: df
Out[3]:
                                     smiles  reported_property  measured_result
0     Oc1cccc(-c2nc3cccnc3n2-c2ccc(F)cc2)c1               IC50               10
1  COc1cc(-c2nc3cccnc3n2-c2ccc(Cl)cc2)cc(OC)c1OC               IC50             19.1
2  Fc1ccc(-n2c(-c3cccc(C(F)(F)F)c3)nc3cccnc32)cc1               IC50               36
3  FC(F)(F)c1cccc(-c2nc3cccnc3n2-c2ccc(Cl)cc2)c1               IC50             21.8
4    COc1cccc(-c2nc3cccnc3n2-c2ccc(F)cc2)c1               IC50               15

====

System: SaOS-2 (osteosarcoma)
Test Summary: MTT cytotoxicity assay, SaOS-2
Format: cell-based, human
Condition Details: Homo sapiens, SAOS-2, 72 h, read-out: IC50 Bone SaoS2
Reported Property: IC50 (µM)

>>> print(df.to_string())
                                     smiles  reported_property  measured_result
0     Oc1cccc(-c2nc3cccnc3n2-c2ccc(F)cc2)c1               IC50               64
1    COc1cccc(-c2nc3cccnc3n2-c2ccc(F)cc2)c1               IC50               67
2  FC(F)(F)c1cccc(-c2nc3cccnc3n2-c2ccc(Cl)cc2)c1               IC50             53.5
3  COc1cc(-c2nc3cccnc3n2-c2ccc(Cl)cc2)cc(OC)c1OC               IC50               55
4  Fc1ccc(-n2c(-c3cccc(C(F)(F)F)c3)nc3cccnc32)cc1               IC50             52.5
